B1: Subtilisin-chymotrypsin inhibitor-2A, P01053 (parent)
chain: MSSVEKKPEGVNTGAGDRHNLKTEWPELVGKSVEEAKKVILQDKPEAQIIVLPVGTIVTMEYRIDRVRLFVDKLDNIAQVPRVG

- Variants of: B1
- CONDITIONS: Hordeum vulgare; pH 6.25; 25 °C; GdnHCl; Fluorescence; MES 50 mM; reversible: yes; structure 2CI2; whole UniProt chain shown
MEASURED_METRIC: denaturant m value

| VARIANT_KEY | MEASURED_VALUE |
| --- | --- |
| K37G | 1.99 kcal/mol/M |
| S32A | 1.86 kcal/mol/M |
| L52A V58A | 1.96 kcal/mol/M |
| E35N | 2.18 kcal/mol/M |
| L52A V58A F70L | 1.93 kcal/mol/M |
| K22A E27A | 1.87 kcal/mol/M |
| E35D | 2.2 kcal/mol/M |
| L52A F70A | 1.59 kcal/mol/M |
| P26A | 3.46 kcal/mol/M |
| E46A | 1.78 kcal/mol/M |
| D43A | 1.87 kcal/mol/M |
| K37A | 1.73 kcal/mol/M |
| P45A | 2.07 kcal/mol/M |
| I40V | 1.99 kcal/mol/M |
| E34D | 1.83 kcal/mol/M |
| K38G | 1.73 kcal/mol/M |
| P81A | 1.8 kcal/mol/M |
| S32G E34A E35A | 2.15 kcal/mol/M |
| L52V V58A F70L | 1.83 kcal/mol/M |
| V58A F70L | 2.02 kcal/mol/M |
| L52I | 1.7 kcal/mol/M |
| F70L | 1.95 kcal/mol/M |
| E61A | 1.78 kcal/mol/M |
| Q42G | 1.81 kcal/mol/M |
| L52V | 1.76 kcal/mol/M |
| R63A | 1.78 kcal/mol/M |
